# System: SNB-19 CNS
# TEST_DESCRIPTION: NCI tumour cell line growth inhibition, 48 h
TGI for assorted compounds
PARAMETER: TGI

[[record]]
compound = "C=CCCC(=O)C(=[N+]=[N-])C(=O)CCC(=O)c1ccccc1"
parameter = "TGI"
reported = "> 10 µM"

[[record]]
compound = "O=C(Oc1ccccc1)C(Br)C(Br)c1ccccc1 (stereo not drawn)"
parameter = "TGI"
reported = "24.6 µM"

[[record]]
compound = "O=C(NC(=O)c1cn(CCN2CCN(C(=O)NCCCCCCNC(=O)N3CCN(CCn4cc(C(=O)NC(=O)OCc5ccccc5)c(=O)[nH]c4=O)CC3)CC2)c(=O)[nH]c1=O)OCc1ccccc1"
parameter = "TGI"
reported = "> 100 µM"

[[record]]
compound = "COc1cc(-c2nccc3cc4c(cc23)OCO4)cc(OC)c1OC"
parameter = "TGI"
reported = "> 100 µM"

[[record]]
compound = "CCN(CC)c1ccc2nc3ccc(N=Nc4ccc(O)cc4)cc3[n+](-c3ccccc3)c2c1"
parameter = "TGI"
reported = "22.9 µM"

[[record]]
compound = "CC(C)=C[C@@H]1O[C@H](O)[C@@H]([C@H]2CC[C@@]3(C)[C@@H]4CC[C@H]5C(C)(C)C(=O)CC[C@@]56C[C@@]46CC[C@]23C)[C@@H]1O"
parameter = "TGI"
reported = "39.1 µM"

[[record]]
compound = "COc1cc(OC)c(C2(c3c(OC(C)C)c(=O)c3=O)SCCCS2)cc1OC"
parameter = "TGI"
reported = "> 100 µM"

[[record]]
compound = "COC(=O)C1(O)C(c2ccccc2)NC2(C)CCCC21 (stereo not drawn)"
parameter = "TGI"
reported = "> 100 µM"

[[record]]
compound = "Cc1ccccc1N=Nc1c(-c2ccccc2)nn(C(=O)CC(=O)Nc2cccc(Cl)c2)c1-c1ccccc1"
parameter = "TGI"
reported = "> 100 µM"

[[record]]
compound = "COc1ccc2oc(C(=O)N3CC(CCl)c4ccc(N)cc43)cc2c1 (stereo not drawn)"
parameter = "TGI"
reported = "19.5 µM"

[[record]]
compound = "Cc1ccc(C(=O)N/N=C2/C(=O)c3c4ccccc4cc4cccc2c34)cc1"
parameter = "TGI"
reported = "> 89.8 µM"

[[record]]
compound = "COc1ccc(-c2nc(N)c(C#N)c3c2CCOc2c-3ccc3ccccc23)cc1"
parameter = "TGI"
reported = "91 µM"

[[record]]
compound = "Cc1noc(C)c1-c1cnc2c(-c3ccc(C(=O)O)cc3)cn([C@@H](C)c3ccccn3)c2c1"
parameter = "TGI"
reported = "> 100 µM"

[[record]]
compound = "O=C1NC(=Nc2ccccc2Cl)N/C1=C\\c1ccc(Cl)cc1Cl"
parameter = "TGI"
reported = "> 100 µM"

[[record]]
compound = "OC(COc1ccccc1)CN1CCCCC1 (stereo not drawn)"
parameter = "TGI"
reported = "> 100 µM"

[[record]]
compound = "CCOC(=O)C1(C(=O)OCC)C=C(c2ccccc2)N(C2OC(COC(C)=O)C(OC(C)=O)C(OC(C)=O)C2OC(C)=O)C1=S (stereo not drawn)"
parameter = "TGI"
reported = "> 100 µM"

[[record]]
compound = "Cn1cc(C2=C(c3ccccc3C(F)(F)F)C(=O)NC2=O)c2ccccc21"
parameter = "TGI"
reported = "> 25 µM"

[[record]]
compound = "COc1cccc(NC(=O)c2sc3nc4c(cc3c2N)C(O)CCC4)c1 (stereo not drawn)"
parameter = "TGI"
reported = "> 93.2 µM"

[[record]]
compound = "O=C(Nc1ccc2c(c1)OCCO2)C(=O)c1c[nH]c2ccccc12"
parameter = "TGI"
reported = "79.7 µM"

[[record]]
compound = "COc1cc(Nc2ncnc(Nc3ccc4c(n3)NC(=O)C(C)(C)O4)n2)cc(OC)c1OC"
parameter = "TGI"
reported = "> 100 µM"

[[record]]
compound = "CCC(C)(O)c1cn(-c2ccc(S(=O)(=O)O)cc2)nn1 (stereo not drawn)"
parameter = "TGI"
reported = "> 100 µM"

[[record]]
compound = "CC12OC(C(=O)C13CCC3)C1C(=O)c3ccc4c(ccc5ccccc54)c3C(=O)C12 (stereo not drawn)"
parameter = "TGI"
reported = "65.7 µM"

[[record]]
compound = "NCCOc1ncccc1/C=C1\\c2ccccc2-c2ccc([N+](=O)[O-])cc21"
parameter = "TGI"
reported = "1.04 µM"

